- target.or.test.system: T1, recombinant purified human IL-12 p70 (human, UniProt P29459 23-219)
- T1 sequence 1: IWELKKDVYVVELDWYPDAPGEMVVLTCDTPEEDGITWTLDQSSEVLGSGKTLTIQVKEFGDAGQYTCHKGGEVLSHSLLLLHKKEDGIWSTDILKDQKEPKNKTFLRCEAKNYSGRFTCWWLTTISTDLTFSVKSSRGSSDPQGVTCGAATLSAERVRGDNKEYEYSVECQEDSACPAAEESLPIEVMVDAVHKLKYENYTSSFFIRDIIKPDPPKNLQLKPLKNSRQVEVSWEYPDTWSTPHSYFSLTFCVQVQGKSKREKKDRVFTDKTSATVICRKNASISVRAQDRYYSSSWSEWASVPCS
- T1 sequence 2: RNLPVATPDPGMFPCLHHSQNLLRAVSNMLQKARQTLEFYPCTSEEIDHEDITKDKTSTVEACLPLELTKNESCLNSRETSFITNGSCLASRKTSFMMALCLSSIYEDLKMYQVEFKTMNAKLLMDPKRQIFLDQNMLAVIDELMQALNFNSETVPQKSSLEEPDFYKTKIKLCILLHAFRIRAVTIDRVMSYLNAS
- measurement.notes: cell-based or functional assay
experimental.endpoint: Av. IC50 (nM) huIL-12, PHA blast assay
Provide only the numeric value, understood in nM.

Fill in the blank: the reported Av. IC50 (nM) huIL-12, PHA blast assay of anti-IL-12p40 humanized antibody 3G7.3 (antibody, human IgG1, kappa, L234A L235A, V domains shown, Back-mutated CDR-grafted antibody; COS cells) VH: EVQLVQSGAEVKKPGASVKVSCKATGYTFNDYWIEWVRQAPGQGLEWMGGFSHGSGSTNYNEKFKGRVTMTADSSTNTAYMELRSLRSDDTAVYYCARRRFRGMDYWGQGTTVTVSS VL: EIVMTQSPATLSVSPGERATLSCKASQSVSNDVAWYQQKPGQAPRLLIYYASNRYTGVPDRFSGSGSGTEFTLTISSLQSEDFAVYYCQQDYSSPWSFGGGTKVEIKR is ____. 0.42
